# tested_target: GABA-A receptor; alpha-1/beta-3/gamma-2 (Homo sapiens, UniProt P14867+P18507+P28472)
# Sequence (P14867 whole entry, one chain of several): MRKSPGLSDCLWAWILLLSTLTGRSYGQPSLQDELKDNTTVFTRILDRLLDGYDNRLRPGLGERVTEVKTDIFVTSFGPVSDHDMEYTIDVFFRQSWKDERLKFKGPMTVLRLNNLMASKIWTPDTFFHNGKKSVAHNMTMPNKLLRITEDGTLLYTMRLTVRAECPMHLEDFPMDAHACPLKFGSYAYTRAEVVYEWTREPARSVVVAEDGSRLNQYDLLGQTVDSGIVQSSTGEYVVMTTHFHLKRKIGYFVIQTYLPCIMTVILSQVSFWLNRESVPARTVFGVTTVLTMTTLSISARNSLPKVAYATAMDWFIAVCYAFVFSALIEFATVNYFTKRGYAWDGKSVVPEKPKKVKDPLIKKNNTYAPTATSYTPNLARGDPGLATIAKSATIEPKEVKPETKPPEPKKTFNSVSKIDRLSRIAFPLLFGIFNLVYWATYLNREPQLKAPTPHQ
# method_description: Binding affinity for human GABA-A receptor alpha-1-beta-3-gamma-2 subunits in L(tk-) cells
pKi: −log10 of the molar value.
Classify by measured pKi: condition met if it is equal to or exceeds 8, condition not met if it is smaller.

| compound | tested_target | class |
| --- | --- | --- |
| Cc1ccc2c(OCc3ccccn3)nn3c(-c4ccccc4)nnc3c2c1 | GABA-A receptor; alpha-1/beta-3/gamma-2 (Homo sapiens, UniProt P14867+P18507+P28472) | condition not met |
| c1ccc(-c2nnc3c4ccccc4c(OCc4ccncc4)nn23)cc1 | GABA-A receptor; alpha-1/beta-3/gamma-2 (Homo sapiens, UniProt P14867+P18507+P28472) | condition not met |
| c1ccc(-c2nnc3c4ccccc4c(OCc4cnccn4)nn23)cc1 | GABA-A receptor; alpha-1/beta-3/gamma-2 (Homo sapiens, UniProt P14867+P18507+P28472) | condition met |
| Cc1cccc(COc2nn3c(C4CC4)nnc3c3ccccc23)n1 | GABA-A receptor; alpha-1/beta-3/gamma-2 (Homo sapiens, UniProt P14867+P18507+P28472) | condition not met |
| c1ccc(-c2nnc3c4ccccc4c(OCc4cccs4)nn23)cc1 | GABA-A receptor; alpha-1/beta-3/gamma-2 (Homo sapiens, UniProt P14867+P18507+P28472) | condition not met |
| C=Cc1nnc2c3ccccc3c(OCc3ccccn3)nn12 | GABA-A receptor; alpha-1/beta-3/gamma-2 (Homo sapiens, UniProt P14867+P18507+P28472) | condition not met |
| c1ccc(-c2nnc3c4ccccc4c(OCCc4ccccn4)nn23)cc1 | GABA-A receptor; alpha-1/beta-3/gamma-2 (Homo sapiens, UniProt P14867+P18507+P28472) | condition not met |
| c1ccc(-c2nnc3c4c(c(OCc5ccccn5)nn23)CCCCC4)cc1 | GABA-A receptor; alpha-1/beta-3/gamma-2 (Homo sapiens, UniProt P14867+P18507+P28472) | condition not met |
| CCOC(=O)c1ncn2c1[C@@H]1CCCN1C(=O)c1cc(OC)ccc1-2 | GABA-A receptor; alpha-1/beta-3/gamma-2 (Homo sapiens, UniProt P14867+P18507+P28472) | condition not met |
| Cc1cccc2c(OCc3ccccn3)nn3c(-c4ccccc4)nnc3c12 | GABA-A receptor; alpha-1/beta-3/gamma-2 (Homo sapiens, UniProt P14867+P18507+P28472) | condition met |
| Clc1cccc(COc2nn3c(-c4ccccc4)nnc3c3ccccc23)c1 | GABA-A receptor; alpha-1/beta-3/gamma-2 (Homo sapiens, UniProt P14867+P18507+P28472) | condition not met |

* * *

# tested_target: GABA-A receptor; alpha-5/beta-3/gamma-2 (Homo sapiens, UniProt P18507+P28472+P31644)
# Sequence (P18507 whole entry): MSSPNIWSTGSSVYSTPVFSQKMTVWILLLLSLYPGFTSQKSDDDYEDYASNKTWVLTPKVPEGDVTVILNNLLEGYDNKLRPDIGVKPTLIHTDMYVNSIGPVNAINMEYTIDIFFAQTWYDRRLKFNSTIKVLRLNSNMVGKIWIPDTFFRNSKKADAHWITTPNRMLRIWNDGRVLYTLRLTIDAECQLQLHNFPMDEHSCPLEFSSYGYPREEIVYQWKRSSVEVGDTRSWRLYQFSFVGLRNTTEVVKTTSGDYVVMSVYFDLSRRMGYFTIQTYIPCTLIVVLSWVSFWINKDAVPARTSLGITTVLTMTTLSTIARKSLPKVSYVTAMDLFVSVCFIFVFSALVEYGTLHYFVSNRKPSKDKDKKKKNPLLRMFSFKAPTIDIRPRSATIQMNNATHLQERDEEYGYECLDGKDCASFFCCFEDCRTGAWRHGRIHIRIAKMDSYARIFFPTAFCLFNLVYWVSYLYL
# Sequence (P28472 whole entry): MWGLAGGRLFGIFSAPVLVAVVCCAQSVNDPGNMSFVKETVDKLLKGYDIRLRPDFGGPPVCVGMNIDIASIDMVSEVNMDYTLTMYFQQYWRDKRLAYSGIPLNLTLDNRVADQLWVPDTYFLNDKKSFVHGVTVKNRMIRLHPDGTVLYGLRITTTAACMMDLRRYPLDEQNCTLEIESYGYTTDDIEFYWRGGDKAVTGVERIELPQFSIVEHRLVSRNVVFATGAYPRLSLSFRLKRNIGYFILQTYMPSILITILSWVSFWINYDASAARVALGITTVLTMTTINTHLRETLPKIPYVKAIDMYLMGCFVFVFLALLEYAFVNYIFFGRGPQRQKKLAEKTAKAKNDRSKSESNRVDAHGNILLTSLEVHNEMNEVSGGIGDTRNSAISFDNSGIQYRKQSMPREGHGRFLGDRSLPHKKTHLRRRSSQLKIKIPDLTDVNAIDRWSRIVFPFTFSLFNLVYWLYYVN
# Sequence (P31644 whole entry): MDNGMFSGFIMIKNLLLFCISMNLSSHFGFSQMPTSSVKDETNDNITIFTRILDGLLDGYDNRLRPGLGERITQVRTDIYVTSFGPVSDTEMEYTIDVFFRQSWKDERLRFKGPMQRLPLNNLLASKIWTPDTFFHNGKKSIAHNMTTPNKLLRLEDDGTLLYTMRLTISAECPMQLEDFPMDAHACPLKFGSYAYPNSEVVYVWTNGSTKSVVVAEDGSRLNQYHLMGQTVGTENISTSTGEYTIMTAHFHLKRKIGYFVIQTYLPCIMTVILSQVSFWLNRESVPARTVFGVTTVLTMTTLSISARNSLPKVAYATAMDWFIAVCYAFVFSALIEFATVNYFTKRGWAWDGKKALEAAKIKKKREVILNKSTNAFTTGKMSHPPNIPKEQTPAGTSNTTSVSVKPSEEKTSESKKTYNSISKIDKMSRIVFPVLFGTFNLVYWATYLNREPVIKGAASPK
# method_description: Binding affinity for human GABA-A receptor alpha-5-beta-3-gamma-2 subunits in L(tk-) cells
pKi: −log10 of the molar value.
Property: pKi; scope: individual compounds

| compound | relation_symbol | pKi |
| --- | --- | --- |
| c1ccc(CCOc2nn3c(-c4ccccc4)nnc3c3ccccc23)cc1 | < | 6.00 |
| c1ccc(-c2nnc3c4ccccc4c(OCc4cccnn4)nn23)cc1 | = | 9.82 |
| COc1ccc(COc2nn3c(-c4ccccc4)nnc3c3ccccc23)cc1 | = | 6.80 |
| c1ccc(Cc2nnc3c4ccccc4c(OCc4ccccn4)nn23)cc1 | = | 7.74 |
| CN(C)Cc1nnc2c3ccccc3c(OCc3ccccn3)nn12 | = | 6.80 |
| N#Cc1cccc(COc2nn3c(-c4ccccc4)nnc3c3ccccc23)c1 | = | 6.89 |
| c1ccc(Oc2nn3c(-c4ccccc4)nnc3c3ccccc23)cc1 | < | 6.00 |
| c1ccc(-c2nnc3c4ccccc4c(OCc4cnccn4)nn23)cc1 | = | 9.44 |
| Cc1cccnc1COc1nn2c(-c3ccccc3)nnc2c2ccccc12 | = | 9.06 |
| c1ccc(-c2nnc3c4ccccc4c(OCC4CCCCC4)nn23)cc1 | < | 6.00 |
| c1ccc(CCCOc2nn3c(-c4ccccc4)nnc3c3ccccc23)cc1 | < | 6.00 |
| COc1nn2c(-c3ccccc3)nnc2c2ccccc12 | = | 7.41 |
| Cc1ccc2c(OCc3ccccn3)nn3c(-c4ccccc4)nnc3c2c1 | < | 6.00 |
| c1ccc(-c2nnc3c4ccccc4c(OCc4ccncn4)nn23)cc1 | = | 9.30 |
| Cc1nnc2c3ccccc3c(OCc3ccccn3)nn12 | = | 7.54 |
| c1ccc(CSc2nn3c(-c4ccccc4)nnc3c3ccccc23)cc1 | < | 6.00 |
| Cc1ccc2c(c1)c(OCc1ccccn1)nn1c(-c3ccccc3)nnc21 | = | 9.19 |
| Cc1ccc(-c2nnc3c4ccccc4c(OCc4ccccn4)nn23)cc1 | = | 8.40 |
| Cc1ccc(COc2nn3c(-c4ccccc4)nnc3c3ccccc23)nc1 | = | 8.96 |
| c1ccc(COc2nn3c(C4CCC4)nnc3c3ccccc23)nc1 | = | 8.29 |
| COc1ccc(-c2nnc3c4ccccc4c(OCc4ccccc4)nn23)cc1 | = | 7.14 |
| Cc1cccc(COc2nn3c(-c4ccccc4)nnc3c3ccccc23)n1 | = | 8.60 |
| c1ccc(-c2nnc3c4c(c(OCc5ccccn5)nn23)CCCCC4)cc1 | = | 8.57 |
